Recorded measurements of IC50, one per entry
# assay_protocol: Antioxidant activity assessed as ABTS radical scavenging activity
# Format: functional
Express your answer in µM, writing the number without its unit.

Some molecules with recorded IC50:
| molecule | reported_value |
| --- | --- |
| CCCCCCOc1cc(/C=C/C(=O)NCCCc2ccc(C)c(C)c2)cc(OCCCCCC)c1O | 28.5 |
| CCCC(C)Oc1cc(/C=C/C(=O)NCCCc2ccc(C)c(C)c2)cc(OC(C)CCC)c1O (stereo unspecified) | 26.3 |
| COc1cc(/C=C/C(=O)NCc2cc(C(C)(C)C)c(O)c(C(C)(C)C)c2)cc(OC)c1O | 11.3 |
| COc1cc(/C=C/C(=O)NCCc2cc(C(C)(C)C)c(O)c(C(C)(C)C)c2)cc(OC)c1O | 15.6 |
| CCCCCCOc1cc(/C=C/C(=O)NCCc2cc(C(C)(C)C)c(O)c(C(C)(C)C)c2)cc(OCCCCCC)c1O | 27.4 |

Now look at this one.
Fill blank: measured IC50 of the molecule CCCCCCOc1cc(/C=C/C(=O)NCc2cc(C(C)(C)C)c(O)c(C(C)(C)C)c2)cc(OCCCCCC)c1O is ____. 23.2

* * *

# Test system: Brain
# assay_protocol: Inhibition of lipid peroxidation in Sprague-Dawley rat brain after 30 mins by TBARS assay
# Format: functional, tissue-based
# settings: 0.5 h
Each item that follows carries a reported IC50.

Observe how each entry below is paired with its result.
| compound | reported_value |
| --- | --- |
| CCC(CC)Oc1cc(/C=C/C(=O)NCc2cc(C(C)(C)C)c(O)c(C(C)(C)C)c2)cc(OC(CC)CC)c1O | 820 nM |
| CCCOc1cc(/C=C/C(=O)NCc2cc(C(C)(C)C)c(O)c(C(C)(C)C)c2)cc(OCCC)c1O | 270 nM |

Kindly consider the entry below.
IC50 of COc1cc(/C=C/C(=O)NCc2cc(C(C)(C)C)c(O)c(C(C)(C)C)c2)cc(OC)c1O on Brain? 1460 nM

* * *

# Test system: Brain
# assay_protocol: Inhibition of lipid peroxidation in Sprague-Dawley rat brain after 30 mins by TBARS assay
# Type: functional, tissue-based
# settings: 0.5 h
quantity: pIC50
# pIC50 is unitless: minus log10 of the molar concentration; print number only

| molecule | pIC50 |
| --- | --- |
| CCCCOc1cc(/C=C/C(=O)NCCc2cc(C(C)(C)C)c(O)c(C(C)(C)C)c2)cc(OCCCC)c1O | 6.39 |
| COc1cc(CC(=O)NCCCc2ccc(C)c(C)c2)ccc1O | 4.59 |
| CCCCOc1cc(/C=C/C(=O)NCc2cc(C(C)(C)C)c(O)c(C(C)(C)C)c2)cc(OCCCC)c1O | 6.38 |
| COc1cc(CNC(=O)CCCc2ccc(C)c(C)c2)ccc1O | 4.24 |
| CCCCCCOc1cc(/C=C/C(=O)NCCc2cc(C(C)(C)C)c(O)c(C(C)(C)C)c2)cc(OCCCCCC)c1O | 5.56 |

Return reported pIC50; argument: CCCOc1cc(/C=C/C(=O)NCCc2cc(C(C)(C)C)c(O)c(C(C)(C)C)c2)cc(OCCC)c1O 6.59

Field request: pIC50 | item: CCC(CC)Oc1cc(/C=C/C(=O)NCCc2cc(C(C)(C)C)c(O)c(C(C)(C)C)c2)cc(OC(CC)CC)c1O 6.36

Request the reported pIC50 associated with CCCC(C)Oc1cc(/C=C/C(=O)NCc2cc(C(C)(C)C)c(O)c(C(C)(C)C)c2)cc(OC(C)CCC)c1O (stereo unspecified) 6.24

Entry under review: CCCCCCOc1cc(/C=C/C(=O)O)cc(OCCCCCC)c1O . Reported pIC50? 5.65

Please give the measured pIC50 for this molecule: COc1cc(/C=C/C(=O)O)cc(OC)c1O [SINAPINATE] 5.32

Quick one: pIC50 for CCCCCCOc1cc(/C=C/C(=O)NCc2cc(C(C)(C)C)c(O)c(C(C)(C)C)c2)cc(OCCCCCC)c1O ? 5.45

If you can, please state the reported pIC50 value of CCCCOc1cc(/C=C/C(=O)O)cc(OCCCC)c1O . 5.43

Recorded pIC50 for CCCC(C)Oc1cc(/C=C/C(=O)NCCCc2ccc(C)c(C)c2)cc(OC(C)CCC)c1O (stereo unspecified) , please? 5.88

# query: pIC50 of entry CCCC(C)Oc1cc(/C=C/C(=O)NCCc2cc(C(C)(C)C)c(O)c(C(C)(C)C)c2)cc(OC(C)CCC)c1O (stereo unspecified) 6.44

For the molecule CCC(CC)Oc1cc(/C=C/C(=O)NCCCc2ccc(C)c(C)c2)cc(OC(CC)CC)c1O , what pIC50 is on record? 5.76

Form field: reported pIC50 of CCC(CC)Oc1cc(/C=C/C(=O)O)cc(OC(CC)CC)c1O 5.66

Hello, the source for this data is ChEMBL document CHEMBL1141510, in case you need it.
